PROTOCOL DETAILS: Clearance in Wistar rat at 10 mg/kg, po and 3 mg/kg, iv
Type: ADME, organism-based
CONDITION NOTES: in vivo
Listed next: entries and their corresponding clearance.

COMPOUND | clearance (mL/min/kg)
COc1ccc2c(Nc3cn(C)cn3)nc(NC(C)c3ncc(F)cn3)nc2c1 (racemic) | 110
C[C@H](Nc1nc(Nc2cn(C)cn2)c2cc[nH]c2n1)c1ncc(F)cn1 | 36
C[C@H](Nc1nc(Nc2cn(C)cn2)c2cnn(C)c2n1)c1ncc(F)cn1 | 25
CC(Nc1nc(Nc2cn(C)cn2)c2cccnc2n1)c1ncc(F)cn1 (racemic) | 100
Cc1csc2c(Nc3cn(C)cn3)nc(N[C@@H](C)c3ncc(F)cn3)nc12 | 44

====

PROTOCOL DETAILS: Cytotoxicity against mouse BA/F3 cells expressing TEL-Jak2 after 72 hrs by MTS assay
Type: functional
CONDITION NOTES: BaF3, 72 h
Entries get a class label from measured GI50. See ranges: low interval = under 30 nM, middle interval = from 30 nM up to 100 nM, high interval = 100 nM and over

COMPOUND | CATEGORY LABEL
C[C@H](Nc1nc(Nc2cn(C)cn2)c2ccn(C3CC3)c2n1)c1ncc(F)cn1 | middle interval
C[C@H](Nc1nc(Nc2cn(C)cn2)c2nccnc2n1)c1ncc(F)cn1 | high interval
C[C@H](Nc1nc(Nc2cn(C)cn2)c2cc(F)cnc2n1)c1ncc(F)cn1 | high interval
C[C@H](Nc1nc(Nc2cn(C)cn2)c2ccccc2n1)c1ncc(F)cn1 | middle interval
CC(Nc1nc(Nc2cn(C)cn2)c2ccc(Cl)nc2n1)c1ncc(F)cn1 (racemic) | low interval
C[C@H](Nc1ncc(Cl)c(Nc2cn(C)cn2)n1)c1ncc(F)cn1 | high interval
COc1ccc2c(Nc3cn(C)cn3)nc(NC(C)c3ncc(F)cn3)nc2c1 (racemic) | middle interval
CC(Nc1nc(Nc2cn(C)cn2)c2cn[nH]c2n1)c1ncc(F)cn1 (racemic) | high interval
Cc1csc2c(Nc3cn(C)cn3)nc(N[C@@H](C)c3ncc(F)cn3)nc12 | middle interval
C[C@H](Nc1nc(Nc2cn(C)cn2)c2cnn(C)c2n1)c1ncc(F)cn1 | low interval
C[C@H](Nc1nc(Nc2cn(C)cn2)c2ccn(C)c2n1)c1ncc(F)cn1 | middle interval
COc1ccc2nc(NC(C)c3ncc(F)cn3)nc(Nc3cn(C)cn3)c2c1 (racemic) | high interval
CC(Nc1nc(Nc2cn(C)cn2)c2cccnc2n1)c1ncc(F)cn1 (racemic) | middle interval
C[C@H](Nc1nc(Nc2cn(C)cn2)c2ccncc2n1)c1ncc(F)cn1 | low interval

====

STUDY SYSTEM: Tyrosine-protein kinase JAK1 (Homo sapiens)
Sequence (P23458 whole entry): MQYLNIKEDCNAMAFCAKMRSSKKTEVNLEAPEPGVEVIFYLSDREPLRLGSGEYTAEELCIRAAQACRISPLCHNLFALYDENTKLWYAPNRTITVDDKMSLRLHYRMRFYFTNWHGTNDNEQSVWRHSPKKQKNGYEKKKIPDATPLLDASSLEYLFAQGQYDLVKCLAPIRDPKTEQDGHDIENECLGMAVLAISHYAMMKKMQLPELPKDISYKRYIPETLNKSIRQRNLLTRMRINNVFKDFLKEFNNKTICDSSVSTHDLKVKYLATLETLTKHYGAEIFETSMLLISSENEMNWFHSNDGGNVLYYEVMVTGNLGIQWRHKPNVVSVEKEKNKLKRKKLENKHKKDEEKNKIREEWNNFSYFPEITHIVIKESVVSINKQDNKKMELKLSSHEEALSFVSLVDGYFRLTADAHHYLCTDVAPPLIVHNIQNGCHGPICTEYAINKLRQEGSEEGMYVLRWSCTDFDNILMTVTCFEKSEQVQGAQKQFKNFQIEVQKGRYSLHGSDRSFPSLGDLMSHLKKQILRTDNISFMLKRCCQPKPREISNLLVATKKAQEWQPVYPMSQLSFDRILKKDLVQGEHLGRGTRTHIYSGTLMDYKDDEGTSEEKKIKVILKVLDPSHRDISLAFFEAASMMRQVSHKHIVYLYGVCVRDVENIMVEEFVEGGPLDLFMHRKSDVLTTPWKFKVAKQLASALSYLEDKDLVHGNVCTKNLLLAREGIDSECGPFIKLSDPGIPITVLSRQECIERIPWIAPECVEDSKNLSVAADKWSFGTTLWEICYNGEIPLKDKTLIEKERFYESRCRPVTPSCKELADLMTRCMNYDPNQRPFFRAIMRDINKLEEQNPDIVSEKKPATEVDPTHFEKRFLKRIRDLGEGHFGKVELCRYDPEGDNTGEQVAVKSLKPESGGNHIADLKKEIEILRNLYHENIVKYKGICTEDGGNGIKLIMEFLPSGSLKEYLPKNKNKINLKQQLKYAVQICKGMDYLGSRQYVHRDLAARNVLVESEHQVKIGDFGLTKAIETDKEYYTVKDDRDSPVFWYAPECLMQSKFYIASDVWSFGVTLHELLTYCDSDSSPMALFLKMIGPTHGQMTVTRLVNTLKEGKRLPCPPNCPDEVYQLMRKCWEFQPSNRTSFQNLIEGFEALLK

LINE NOTATION | RESULT UNITS | IC50
C[C@H](Nc1nc(Nc2cn(C)cn2)c2ccncc2n1)c1ncc(F)cn1 | nM | 28

====

PROTOCOL DETAILS: Half life in beagle dog at 10 mg/kg, po
Type: ADME, organism-based, Canis lupus familiaris
Set-up: dose 10 mg/kg, route oral
CONDITION NOTES: in vivo

LINE NOTATION | half-life / h
C[C@H](Nc1nc(Nc2cn(C)cn2)c2cc[nH]c2n1)c1ncc(F)cn1 | 7.6
C[C@H](Nc1nc(Nc2cn(C)cn2)c2cnn(C)c2n1)c1ncc(F)cn1 | 7.7

Source: ChEMBL document CHEMBL3112447
